SYSTEM NAME: IRAK4 (Homo sapiens)
Construct: Degradation of IRAK4 in OCI-LY10 was quantitatively measured using Meso Scale Discovery technology; endogenous in cells; host or cells: OCI-LY10
Sequence (Q9NWZ3 whole entry): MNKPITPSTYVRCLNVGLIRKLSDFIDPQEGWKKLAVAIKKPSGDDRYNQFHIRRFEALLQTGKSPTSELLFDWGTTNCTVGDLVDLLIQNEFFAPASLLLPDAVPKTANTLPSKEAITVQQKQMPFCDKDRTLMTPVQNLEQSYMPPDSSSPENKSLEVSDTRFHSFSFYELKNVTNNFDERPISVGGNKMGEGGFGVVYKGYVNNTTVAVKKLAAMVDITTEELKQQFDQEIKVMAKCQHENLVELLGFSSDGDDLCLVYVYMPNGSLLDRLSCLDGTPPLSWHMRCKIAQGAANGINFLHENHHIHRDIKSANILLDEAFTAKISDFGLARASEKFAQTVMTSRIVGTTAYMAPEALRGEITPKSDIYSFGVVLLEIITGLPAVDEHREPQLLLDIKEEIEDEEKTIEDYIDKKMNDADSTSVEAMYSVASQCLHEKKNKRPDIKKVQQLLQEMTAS
EXPERIMENT: IRAK4 MSD Degradation in OCI-LY10
Format: cell-based
TEST CONDITIONS: OCI-LY10 cells, 4 hrs incubation, MSD; read-out: IRAK4 degradation in OCI-LY10 at 4 hrs: DC50
QUANTITY NAME: DC50

Cn1c(=O)n(C2CCC(=O)NC2=O)c2cccc(C#CCOC3CCN(C[C@H]4CC[C@H](n5cc(NC(=O)c6cnn7ccc(C8COCCN8)nc67)c(C(F)F)n5)CC4)CC3)c21 (stereo partly drawn) = > 200 nM
Cc1cccc(C(=O)Nc2cc3cn([C@H]4CC[C@H](CN5CCN(c6cccc7c6n(C)c(=O)n7C6CCC(=O)NC6=O)CC5)CC4)nc3cn2)n1 (stereo partly drawn) = > 200 nM
C[C@H]1CN(C[C@H]2CC[C@H](n3cc(NC(=O)c4cnn5ccc(N6C[C@H]7C[C@@H]6CO7)nc45)c(C(F)F)n3)CC2)CC[C@@H]1OCC#Cc1cccc2c1n(C1CC1)c(=O)n2C1CCC(=O)NC1=O (stereo partly drawn) = < 10 nM
Cn1c(=O)n(C2CCC(=O)NC2=O)c2cccc(C#CCN3CCN(C[C@H]4CC[C@H](n5cc(NC(=O)c6cnn7ccc(N8CCC9(CCOC9)C8)nc67)c(C(F)F)n5)CC4)CC3)c21 (stereo partly drawn) = > 200 nM
Cn1c(=O)n(C2CCC(=O)NC2=O)c2cccc(-c3ccc(N4CCc5cc(-n6cc(NC(=O)c7cnn8cccnc78)c(C(F)F)n6)ccc5C4)nc3)c21 (stereo not drawn) = > 200 nM

-- ask I would be grateful if you could share the reported DC50 for Cc1cccc(C(=O)Nc2cc3cn([C@H]4CC[C@H](CN5CC[C@@H](c6cccc7c6n(C)c(=O)n7C6CCC(=O)NC6=O)[C@H](F)C5)CC4)nc3cn2)n1 (stereo partly drawn) .
-- reply > 200 nM

-- ask I would be grateful if you could share the reported DC50 for CN(CC1(F)CCN(c2cccc3c2n(C)c(=O)n3C2CCC(=O)NC2=O)CC1)C1CCC(n2cc3cc(NC(=O)c4cccc(C(F)(F)F)n4)ncc3n2)CC1 (stereo not drawn) .
-- reply > 200 nM
